System: Bacillus thuringiensis
Assay: Antibacterial activity against Bacillus thuringiensis SCSIO BT01 assessed as growth inhibition by broth microdilution method
Format: functional
property: MIC

What value of MIC has been recorded for this entry: C/C=C/C=C/C[C@@H]1C[C@H](O)[C@H]2[C@@H]3/C(C)=C/[C@H]4C=C[C@@H](O)[C@@H](O)[C@@H]4/C(C)=C/C=C\[C@@H]3C(=O)N12
> 128 mg/L

What value of MIC has been recorded for this entry: C/C=C/C=C/C[C@@H]1C/C=C/C=C(C)/C=C/C=C\[C@@H](O)[C@@H](O)/C=C(C)/C=C/C=C/C(=O)N1
> 128 mg/L

What value of MIC has been recorded for this entry: C/C=C/C=C/C[C@@H]1C[C@@H]2/C=C/C(C)=C/[C@H]3C=C[C@@H](O)[C@@H](O)[C@@H]3/C(C)=C/C=C/[C@H]2C(=O)N1
> 128 mg/L

What value of MIC has been recorded for this entry: C/C=C/C=C/C[C@@H]1C/C=C/C=C(C)/C=C/C=C\[C@@H](OC(C)=O)[C@@H](OC(C)=O)/C=C(C)/C=C/C=C/C(=O)N1
> 128 mg/L
